src = patent US20240084017A1

# study_system: human Mac-1 (integrin αMβ2, CD11b/CD18) (human, UniProt P11215 17-1152; P05107 23-769)
# test_name: flow cytometry, HEK293/Mac-1 cells, PBS (Mock), 10 µg/ml of this antibody; binding of reporter mAb KIM127 read
measurement_kind: KIM127 (Expression relative to IgG4)

Task: Look up KIM127 (Expression relative to IgG4) for this binder: anti-Mac-1 antibody clone 24G09 (antibody, human IgG4, V domains shown) VH: EVQLVESGGGLVQPGGSLRLSCAASGFTFSDYAIGWVRQAPGKGLEWVSTIYWSGSNAYYADSVKGRFTISRDNSKNTLYLQMNSLRAEDTAVYYCARLFTLGYHGFDVWGQGTLVTVSS VL: DIQMTQSPSSLSASVGDRVTITCRASQSINTYLNWYQQKPGKAPKLLIYDASNLQSGVPSRFSGSGSGTDFTLTISSLQPEDFATYYCQQYDDLPFTFGQGTKVEIK
Output: 1.01 relative to IgG4

Task: Look up KIM127 (Expression relative to IgG4) for this binder: anti-Mac-1 antibody clone DF3M-5 (antibody, human IgG4, V domains shown) VH: EVQLVESGGGLVQPGGSLRLSCAASGFTFGTYDMHWVRQAPGKGLEWVSMISPSGGDTYYADSVKGRFTISRDNSKNTLYLQMNSLRAEDTAVYYCARDSSGDWYAMAYWGQGTLVTVSS VL: DIQMTQSPSSLSASVGDRVTITCRASQSIRRYLAWYQQKPGKAPKLLIYGASNLQSGVPSRFSGSGSGTDFTLTISSLQPEDFATYYCQHSSDTPLTFGQGTKVEIK
Output: 2.49 relative to IgG4
